target: Inadl_8, Q8NI35; test: holdup assay; design: key: below the threshold = too weak to quantify, mostly under pKd 3.1 to 4; conditions: plain residues with an end cap or a label only (N-terminal biotin on a linker: ahx)
Sequence (Q8NI35 1425-1530): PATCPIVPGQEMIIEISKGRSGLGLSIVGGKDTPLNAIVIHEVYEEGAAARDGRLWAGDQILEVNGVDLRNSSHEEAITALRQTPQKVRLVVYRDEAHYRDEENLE
attribute_measured: pKd

binder: KEYDDELTFF [USH1C, Q9Y6N9]
val: below the threshold
--
binder: VNENQKEYFF [CNTNAP4, Q9C0A0]
val: below the threshold
--
binder: SAPATLSSRA [PDLIM2, Q96JY6]
val: below the threshold
